Reported bioavailability values for a set of compounds
- test: Oral bioavailability in rat at 5 mg/kg
- Type: ADME, organism-based
- condition parameters: in vivo

// below: answered compounds
CC(C)(C#Cc1ccc(NC(=O)CSc2nnnn2-c2ccc(C3CC3)cc2Cl)c(Cl)c1)NC(=O)CN	21%
CC(C)(C#Cc1ccc(NC(=O)CSc2nnnn2-c2ccc(C3CC3)cc2Cl)c(Cl)c1)CNCC(=O)O	29%

# next compound below
# input compound: CC(C)(C#Cc1ccc(NC(=O)CSc2nnnn2-c2ccc(C3CC3)cc2Cl)c(Cl)c1)C(=O)O ; wanted: its bioavailability
66%
